- System Tested: T1, human nectin-4 protein expressed on the surface of cells (human, UniProt Q96NY8 32-510)
- T1 sequence: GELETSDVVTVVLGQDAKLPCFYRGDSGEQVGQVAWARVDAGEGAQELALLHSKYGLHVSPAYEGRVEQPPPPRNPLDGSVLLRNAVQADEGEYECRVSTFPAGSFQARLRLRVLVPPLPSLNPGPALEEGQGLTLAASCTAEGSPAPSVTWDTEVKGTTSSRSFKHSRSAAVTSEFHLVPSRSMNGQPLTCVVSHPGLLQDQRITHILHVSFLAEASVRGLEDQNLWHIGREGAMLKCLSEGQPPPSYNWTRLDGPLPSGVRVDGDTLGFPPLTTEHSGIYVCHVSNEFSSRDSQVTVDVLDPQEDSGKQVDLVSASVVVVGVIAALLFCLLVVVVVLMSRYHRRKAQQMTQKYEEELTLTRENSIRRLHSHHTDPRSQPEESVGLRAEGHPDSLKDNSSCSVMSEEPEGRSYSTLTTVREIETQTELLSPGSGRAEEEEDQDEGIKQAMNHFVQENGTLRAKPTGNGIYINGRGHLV
- Test Details: cell-based or functional assay
Give Cell kill IC50, SKBR3 for every item shown.
# output: bare number, implied unit µM

So what's the measured Cell kill IC50, SKBR3 for this one? Nectin-4 5D9 VH5/VL5 (antibody, V domains shown, Humanized; also called 5D9 VH variant 5 / 5D9 VL variant 5) VH: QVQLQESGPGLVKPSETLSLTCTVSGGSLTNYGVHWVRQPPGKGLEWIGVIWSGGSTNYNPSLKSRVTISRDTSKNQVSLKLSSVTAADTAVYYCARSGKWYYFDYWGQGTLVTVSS VL: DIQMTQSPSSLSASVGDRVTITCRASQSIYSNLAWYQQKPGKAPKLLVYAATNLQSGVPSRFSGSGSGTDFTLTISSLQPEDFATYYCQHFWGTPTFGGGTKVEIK
0.0178

So what's the measured Cell kill IC50, SKBR3 for this one? Nectin-4 5D9 VH3/VL3 (antibody, V domains shown, Humanized; also called 5D9 VH variant 3 / 5D9 VL variant 3) VH: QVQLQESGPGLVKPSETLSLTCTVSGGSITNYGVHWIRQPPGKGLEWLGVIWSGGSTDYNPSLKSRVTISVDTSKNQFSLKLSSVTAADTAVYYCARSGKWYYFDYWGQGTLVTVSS VL: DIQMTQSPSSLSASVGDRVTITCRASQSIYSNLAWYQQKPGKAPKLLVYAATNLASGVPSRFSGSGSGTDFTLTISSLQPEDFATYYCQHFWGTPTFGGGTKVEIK
0.0106

So what's the measured Cell kill IC50, SKBR3 for this one? Nectin-4 5D9 VH4/VL1 (antibody, V domains shown, Humanized; also called 5D9 VH variant 4 / 5D9 VL variant 1; Nectin-4 VH4/VL1) VH: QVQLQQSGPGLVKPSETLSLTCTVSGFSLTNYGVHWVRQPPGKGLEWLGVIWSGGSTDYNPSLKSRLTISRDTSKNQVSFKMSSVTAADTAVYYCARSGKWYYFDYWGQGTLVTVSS VL: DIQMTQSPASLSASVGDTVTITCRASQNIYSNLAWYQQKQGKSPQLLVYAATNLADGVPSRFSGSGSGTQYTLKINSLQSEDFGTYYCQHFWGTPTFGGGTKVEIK
0.00385

So what's the measured Cell kill IC50, SKBR3 for this one? Nectin-4 5D9 VH4/VL2 (antibody, V domains shown, Humanized; also called 5D9 VH variant 4 / 5D9 VL variant 2) VH: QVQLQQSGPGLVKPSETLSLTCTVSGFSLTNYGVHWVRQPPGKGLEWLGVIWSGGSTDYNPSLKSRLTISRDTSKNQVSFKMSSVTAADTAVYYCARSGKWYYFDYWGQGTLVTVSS VL: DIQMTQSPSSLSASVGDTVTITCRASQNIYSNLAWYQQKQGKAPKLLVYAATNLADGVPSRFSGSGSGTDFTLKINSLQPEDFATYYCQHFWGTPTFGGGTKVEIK
0.00495

So what's the measured Cell kill IC50, SKBR3 for this one? Nectin-4 5D9 VH1/VL1 (antibody, V domains shown, Humanized; also called 5D9 VH variant 1 / 5D9 VL variant 1) VH: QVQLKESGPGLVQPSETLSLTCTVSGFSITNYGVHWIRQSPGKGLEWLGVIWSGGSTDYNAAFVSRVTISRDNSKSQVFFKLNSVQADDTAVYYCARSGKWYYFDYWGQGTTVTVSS VL: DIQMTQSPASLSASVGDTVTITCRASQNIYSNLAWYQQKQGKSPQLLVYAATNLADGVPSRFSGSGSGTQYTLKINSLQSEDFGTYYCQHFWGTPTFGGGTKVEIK
0.015

Data provenance: patent US20250101098A1
